Values from the OligoGym collection

# tested-on: PDPK1
# test-context: ASO
These antisense oligonucleotides have a phosphorothioate backbone; sugars and methylation of C are not fully specified.
quantity: remaining target (mRNA or protein) (fraction of control)
Lab note: write the figure by itself, no unit.

Solved entries:
[
  {
    "residue-codes": "AAATAAACCCTTCCGCTT",
    "measured-number": 0.74
  },
  {
    "residue-codes": "GTTCAAAGGAGTTCGAGT",
    "measured-number": 0.5
  },
  {
    "residue-codes": "AAGGTCCCTGTGAATGAT",
    "measured-number": 0.39
  },
  {
    "residue-codes": "ATATTCTCTGGAGGTTGC",
    "measured-number": 0.78
  },
  {
    "residue-codes": "GGTACAGGTCTCATCGAA",
    "measured-number": 0.1
  },
  {
    "residue-codes": "TTTGTTGACAGGATCCAC",
    "measured-number": 0.72
  }
]

Find the measured remaining target (mRNA or protein) (fraction of control): item GAGTTGGCCCTGGCTTGT , target or system PDPK1. Note: test concentration or dose not given here.
0.5

Fill in the recorded remaining target (mRNA or protein) (fraction of control) for this sequence, with PDPK1 as test system: CAAGGTTTCCGCCTCTGC
0.26

Param readout= remaining target (mRNA or protein) (fraction of control); system= PDPK1; entry= TGGATGTGCATATCTTCA ; returns value. Note: test concentration or dose not given here.
0.81

Provide value of remaining target (mRNA or protein) (fraction of control) for this record tested with PDPK1: ATAGCAGTCCTCGTCGTC
0.57

PDPK1 / remaining target (mRNA or protein) (fraction of control) / CAGTCTGGGTCCTCACCA : value?; note: test concentration or dose not given here
0.54

API: value(readout= remaining target (mRNA or protein) (fraction of control), system= PDPK1, query= TATGATATGTCGCTTCTC ); note: test concentration or dose not given here
0.42
